assay: AUC (0 to 6 hrs) in castrated pig plasma withdrawn from portal vein at 0.8 mg/kg administered as intrajejunal dose by UPLC-tandem mass spectrometry; format: ADME, organism-based, Sus scrofa; design: time < 6 hr, dose 0.8 mg/kg; conditions: male
propertyLabel: AUC(0-t) at 6 h
Param answer (str): number followed by unit.

AUC(0-t) at 6 h reported for this molecule CC(C)(C)NC(=O)[C@H]1CC[C@H]2[C@@H]3CC[C@H]4NC(=O)C=C[C@]4(C)[C@H]3CC[C@]12C [FINASTERIDE] : 2.9 µM·h

###

assay: Cmax in castrated pig bile at 0.8 mg/kg administered as intrajejunal dose by UPLC-tandem mass spectrometry; type: ADME, organism-based, Sus scrofa; design: dose 0.8 mg/kg; conditions: male
propertyLabel: Cmax (nM)
// units = nM; emit number, no label

So for CC(C)(C)NC(=O)[C@H]1CC[C@H]2[C@@H]3CC[C@H]4NC(=O)C=C[C@]4(C)[C@H]3CC[C@]12C [FINASTERIDE] , the logged Cmax turned out to be 1300

###

assay: Drug excretion in castrated pig urine assessed as fraction of the dose excreted at 0.8 mg/kg administered as intrajejunal dose measured during 6 hrs sampling by UPLC-tandem mass spectrometry; format: ADME, organism-based, Sus scrofa; design: dose 0.8 mg/kg; conditions: male, read-out: Drug excretion
propertyLabel: dose excreted at 6 h (%)
Give the value in % but do not write % after it.

Lab note: measured dose excreted at 6 h of CC(C)(C)NC(=O)[C@H]1CC[C@H]2[C@@H]3CC[C@H]4NC(=O)C=C[C@]4(C)[C@H]3CC[C@]12C [FINASTERIDE] was 0.02

###

assay: Tmax in castrated pig plasma withdrawn from femoral vein at 0.8 mg/kg administered as intrajejunal dose by UPLC-tandem mass spectrometry; assay type: ADME, organism-based, Sus scrofa; set-up: dose 0.8 mg/kg; conditions: male
propertyLabel: Tmax (min)
Numeric answer only, unit min assumed.

Form: compound = CC(C)(C)NC(=O)[C@H]1CC[C@H]2[C@@H]3CC[C@H]4NC(=O)C=C[C@]4(C)[C@H]3CC[C@]12C [FINASTERIDE] ; Tmax = 54

###

assay: Cmax in castrated pig plasma withdrawn from femoral vein at 10 mg/kg dosed via intrajejunal route by HPLC-UV; conditions: male
propertyLabel: Cmax (nM)
The reply should contain only the number, in nM.

get_value(item= CC(=O)N1CCN(c2ccc(OCC3COC(Cn4ccnc4)(c4ccc(Cl)cc4Cl)O3)cc2)CC1 (stereo unspecified) , readout=Cmax) returns 3000

###

test: Terminal half life in castrated pig plasma withdrawn from femoral vein at 0.8 mg/kg administered as intrajejunal dose 20 mins after ketoconazole administration by UPLC-tandem mass spectrometry; format: ADME, organism-based, Sus scrofa; parameters: dose 0.8 mg/kg; conditions: male, read-out: beta t1/2 (converted)
propertyLabel: half-life

The compound CC(C)(C)NC(=O)[C@H]1CC[C@H]2[C@@H]3CC[C@H]4NC(=O)C=C[C@]4(C)[C@H]3CC[C@]12C [FINASTERIDE] showed half-life equal to 4 h

###

assay: AUC (0 to 6 hrs) in castrated pig bile at 0.8 mg/kg administered as intrajejunal dose by UPLC-tandem mass spectrometry; type: ADME, organism-based, Sus scrofa; design: time < 6 hr, dose 0.8 mg/kg; conditions: male
propertyLabel: AUC(0-t) at 6 h
Kindly write the number and append the unit.

CC(C)(C)NC(=O)[C@H]1CC[C@H]2[C@@H]3CC[C@H]4NC(=O)C=C[C@]4(C)[C@H]3CC[C@]12C [FINASTERIDE] yielded AUC(0-t) at 6 h of 2.5 µM·h

###

experiment: Terminal half life in castrated pig plasma withdrawn from hepatic vein at 0.8 mg/kg administered as intrajejunal dose 20 mins after ketoconazole administration by UPLC-tandem mass spectrometry; type: ADME, organism-based, Sus scrofa; parameters: dose 0.8 mg/kg; settings: male, read-out: beta t1/2 (converted)
propertyLabel: half-life (h)
Report the value in h with no unit label.

Note to self: half-life recorded for CC(C)(C)NC(=O)[C@H]1CC[C@H]2[C@@H]3CC[C@H]4NC(=O)C=C[C@]4(C)[C@H]3CC[C@]12C [FINASTERIDE] was 3.6

###

tested on: Sus scrofa; assay: Absorption rate constant in castrated pig plasma withdrawn from femoral vein at 0.8 mg/kg administered as intrajejunal dose 20 mins after ketoconazole administration by UPLC-tandem mass spectrometry; assay type: ADME, organism-based; set-up: dose 0.8 mg/kg; conditions: in vivo, other
propertyLabel: ka
Please state the value followed by its unit.

Query CC(C)(C)NC(=O)[C@H]1CC[C@H]2[C@@H]3CC[C@H]4NC(=O)C=C[C@]4(C)[C@H]3CC[C@]12C [FINASTERIDE] yields ka of 3 h⁻¹

###

experiment: AUC (0 to 6 hrs) in castrated pig plasma withdrawn from femoral vein at 0.8 mg/kg administered as intrajejunal dose 20 mins after ketoconazole administration by UPLC-tandem mass spectrometry; assay type: ADME, organism-based, Sus scrofa; set-up: time < 6 hr, dose 0.8 mg/kg; details: male
propertyLabel: AUC(0-t) at 6 h (µM·h)
Provide the reading as a plain figure in µM·h.

Value of measured AUC(0-t) at 6 h for the entry CC(C)(C)NC(=O)[C@H]1CC[C@H]2[C@@H]3CC[C@H]4NC(=O)C=C[C@]4(C)[C@H]3CC[C@]12C [FINASTERIDE] : 4.4

###

experiment: Ratio of AUC in bile to plasma withdrawn from portal vein in castrated pig at 0.2 mg/kg, iv by UPLC-tandem mass spectrometry; type: ADME, organism-based, Sus scrofa; parameters: dose 0.2 mg/kg, route intravenous; conditions: male, read-out: Ratio AUC
propertyLabel: Kp
Form field (numeric): enter value without unit.

Value of Kp reported for the compound CC(C)(C)NC(=O)[C@H]1CC[C@H]2[C@@H]3CC[C@H]4NC(=O)C=C[C@]4(C)[C@H]3CC[C@]12C [FINASTERIDE] is 0.9

###

experiment: Biliary excretion in castrated pig assessed as fraction of the dose excreted at 0.2 mg/kg, iv measured during 6 hrs sampling by UPLC-tandem mass spectrometry; type: ADME, organism-based, Sus scrofa; design: dose 0.2 mg/kg, route intravenous; settings: male, bile, read-out: Drug excretion
propertyLabel: dose excreted at 6 h (%)
Use % as the unit, but write only the number.

dose excreted at 6 h measured on CC(C)(C)NC(=O)[C@H]1CC[C@H]2[C@@H]3CC[C@H]4NC(=O)C=C[C@]4(C)[C@H]3CC[C@]12C [FINASTERIDE] = 0.19

###

system: Sus scrofa; assay: Absorption rate constant in castrated pig plasma withdrawn from femoral vein at 0.8 mg/kg administered as intrajejunal dose by UPLC-tandem mass spectrometry; assay type: ADME, organism-based; design: dose 0.8 mg/kg; settings: in vivo, other
propertyLabel: ka (h⁻¹)
// units = h⁻¹; emit number, no label

Noted for CC(C)(C)NC(=O)[C@H]1CC[C@H]2[C@@H]3CC[C@H]4NC(=O)C=C[C@]4(C)[C@H]3CC[C@]12C [FINASTERIDE] : its ka reads 6

###

assay: AUC (0 to 6 hrs) in castrated pig plasma withdrawn from hepatic vein at 0.8 mg/kg administered as intrajejunal dose 20 mins after ketoconazole administration by UPLC-tandem mass spectrometry; type: ADME, organism-based, Sus scrofa; set-up: time < 6 hr, dose 0.8 mg/kg; conditions: male
propertyLabel: AUC(0-t) at 6 h

Briefly, AUC(0-t) at 6 h measured for CC(C)(C)NC(=O)[C@H]1CC[C@H]2[C@@H]3CC[C@H]4NC(=O)C=C[C@]4(C)[C@H]3CC[C@]12C [FINASTERIDE] : 4.1 µM·h

###

assay: Half life in castrated pig plasma withdrawn from portal vein at 10 mg/kg dosed via intrajejunal route by HPLC-UV; conditions: male
propertyLabel: half-life (h)
Number only, in h; omit the unit.

# half-life of CC(=O)N1CCN(c2ccc(OCC3COC(Cn4ccnc4)(c4ccc(Cl)cc4Cl)O3)cc2)CC1 (stereo unspecified) = 3.1

###

assay: Apparent half-life of the terminal disposition phase in castrated pig plasma withdrawn from portal vein at 0.2 mg/kg, iv by UPLC-tandem mass spectrometry; assay type: ADME, organism-based, Sus scrofa; design: dose 0.2 mg/kg, route intravenous; conditions: male, read-out: t1/2 lambda z (converted)
propertyLabel: half-life (h)
State just the number; it will be interpreted in h.

// recorded half-life for CC(C)(C)NC(=O)[C@H]1CC[C@H]2[C@@H]3CC[C@H]4NC(=O)C=C[C@]4(C)[C@H]3CC[C@]12C [FINASTERIDE] : 2.6

###

assay: Biliary excretion in castrated pig assessed as fraction of the dose excreted at 0.8 mg/kg administered as intrajejunal dose 20 mins after ketoconazole administration measured during 6 hrs sampling by UPLC-tandem mass spectrometry; type: ADME, organism-based, Sus scrofa; design: dose 0.8 mg/kg; conditions: male, bile, read-out: Drug excretion
propertyLabel: dose excreted (%)
The response must be a number in % with no trailing unit.

// recorded dose excreted for CC(C)(C)NC(=O)[C@H]1CC[C@H]2[C@@H]3CC[C@H]4NC(=O)C=C[C@]4(C)[C@H]3CC[C@]12C [FINASTERIDE] : 0.18

FYI, the data here is from ChEMBL document CHEMBL3525971.
